# Target: recombinant CD81-LEL (Homo sapiens, UniProt P60033)
# Construct: the large extracellular loop of CD81 (CD81-LEL); GST; His; Shoshana Levy Lab, Stanford (gift)
# Sequence (P60033 113-201 limits assumed): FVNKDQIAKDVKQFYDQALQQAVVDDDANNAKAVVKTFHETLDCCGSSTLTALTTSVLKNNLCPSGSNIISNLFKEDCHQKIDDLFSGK
# Protocol: SPR (Biacore T100) binding of additional ligands to immobilized CD81-LEL (Example 6)
# Study conditions: Table E, ligand 200 uM in PBS-1% DMSO
# note: boundary value 9 RU maps to condition not met; Binding (RU) below it maps to condition met

Worked examples, 2 molecules total:
>  <Molecule>
Cc1ccc(NC(=S)NC(=O)c2ccccc2)cc1NC(=S)NC(=O)c1ccccc1

>  <Target>
recombinant CD81-LEL (Homo sapiens, UniProt P60033)

>  <Assigned label>
condition met

$$$$
>  <Molecule>
CC1=CC(=O)CC(C)(C)C1(O)/C=C/C(C)=C/C(=O)O (stereo not shown)

>  <Target>
recombinant CD81-LEL (Homo sapiens, UniProt P60033)

>  <Assigned label>
condition met

$$$$

-- ask Is 9 RU strictly greater than the molecule's reported Binding (RU)? molecule: "CCNc1ccccc1C(=O)O"
-- reply condition met

-- ask Find out if reported Binding (RU) for c1cncc(C2CCCCN2)c1 (stereo not shown) is less than 9 RU
-- reply condition not met

-- ask # check: Binding (RU) < 9 RU for "CC(C)(C)c1ccc(OCC(=O)O)cc1"
-- reply condition met

-- ask Find out if reported Binding (RU) for "Cc1cc(N2CCN(C)CC2)n2nc(-c3ccc(Cl)cc3)nc2n1" is less than 9 RU
-- reply condition not met

-- ask For "C=CCc1ccccc1OCC(=O)O" , is the recorded Binding (RU) below the cut-off of 9 RU?
-- reply condition met

----------
# Target: recombinant CD81-LEL (GST tag) (Homo sapiens, UniProt P60033)
# Construct: the large extracellular loop of CD81 (CD81-LEL); gift of Dr. Shoshana Levy, Stanford University
# Protocol: Surface plasmon resonance (Biacore T200) binding of ligands to immobilized recombinant CD81-LEL
# Study conditions: Table A; ligand 600 μM in PBS-0.05% Tween-80; CD81-LEL-GST on CM5 chip
SPR Response Units: recorded values
Numbers only here, please. The scale is RU.

-- ask Reported SPR Response Units for recombinant CD81-LEL (GST tag) (Homo sapiens, UniProt P60033), given "O=C(O)c1ccc(O)c(O)c1" ?
-- reply 61.8

-- ask What reported SPR Response Units corresponds to CCCNC1=C(C)C(=O)C2=C(C1=O)C(COC(N)=O)C1(OC)C3NC3CN21 (stereo not shown) on recombinant CD81-LEL (GST tag) (Homo sapiens, UniProt P60033)?
-- reply 34.5

-- ask Provide the documented SPR Response Units with recombinant CD81-LEL (GST tag) (Homo sapiens, UniProt P60033) as the system for "O=C(O)/C=C\c1cc2c(cc1[N+](=O)[O-])OCO2"
-- reply 21.1

-- ask Item O=C(O)CC1OCC=C2CN3CCC45C6=CC(=O)C(=O)C([N+](=O)[O-])=C6NC4C1C2CC35 (stereo not shown) with recombinant CD81-LEL (GST tag) (Homo sapiens, UniProt P60033) - SPR Response Units?
-- reply 67.5

-- ask What is its SPR Response Units for recombinant CD81-LEL (GST tag) (Homo sapiens, UniProt P60033)? Entry: "Nc1nc(O)c(CC(=O)O)s1"
-- reply 14.1

-- ask Value wanted: SPR Response Units (recombinant CD81-LEL (GST tag) (Homo sapiens, UniProt P60033)) of entry "O=C(Nc1ccc(O)c(C(=O)O)c1)Oc1ccccc1"
-- reply 12.1

-- ask Kindly state the measured SPR Response Units obtained for O=C(O)CCC1(c2ccccc2)NC(=O)NC1=O (stereo not shown) with recombinant CD81-LEL (GST tag) (Homo sapiens, UniProt P60033).
-- reply 30.6

-- ask GET /values?readout=SPR Response Units&system=recombinant CD81-LEL (GST tag) (Homo sapiens, UniProt P60033)&item= CC(C)OC1CCCC(O)C1CC(=O)O (stereo not shown)
-- reply 13.3

-- ask Find SPR Response Units (recombinant CD81-LEL (GST tag) (Homo sapiens, UniProt P60033)) for the entry "COc1cc(CCC(=O)O)on1"
-- reply 7.8

-- ask Any idea what SPR Response Units came out for NC(=O)CCC(C(=O)O)N1C(=O)c2ccc(O)cc2C1=O (stereo not shown) on recombinant CD81-LEL (GST tag) (Homo sapiens, UniProt P60033)?
-- reply 54.5

----------
# Target: recombinant CD81-LEL (Homo sapiens, UniProt P60033)
# Construct: the large extracellular loop of CD81 (CD81-LEL); GST; His; Shoshana Levy Lab, Stanford (gift)
# Protocol: Dual polarization interferometry (DPI) binding of ligands to immobilized recombinant CD81-LEL
# Study conditions: Table A; ligand 500 μM in PBS, 2.5% DMSO
Quantity kind: DPI Radians (Radians)
Answer in Radians, number only, no unit symbol.

>  <Smiles input>
O=C(O)/C=C\C(=O)Nc1nccs1

>  <Units text>
Radians

>  <DPI Radians>
0.1909

$$$$

-- ask Record request: DPI Radians value, item "O=C(O)Cn1cnc2c(=S)nc[nH]c21"
-- reply 0.1448

-- ask Return reported DPI Radians; argument: "NC(=S)Nc1cccc(Cl)c1"
-- reply 0.7494

-- ask Dear colleague, I am looking for the recorded DPI Radians of the following molecule: "O=C(O)c1ccccc1C(=O)Nc1ccccc1[N+](=O)[O-]"
-- reply 0.2700

-- ask Using the record for "Cn1c(=O)c2[nH]c(CNc3ccc(C(=O)O)cc3)nc2n(C)c1=O" , report its DPI Radians.
-- reply 0.4360

----------
# Target: native CD81 on Raji cells (Homo sapiens, UniProt P60033)
# Construct: endogenous in cells; host or cells: Raji (human B cell line)
# Protocol: Competition assay: inhibition of FITC-labeled JS-81 anti-CD81 antibody binding to native CD81 on live Raji cells (flow cytometry)
# Format: cell-based
# Study conditions: 100 μM ligand
Quantity kind: Inhibition of JS-81 Binding (%)
Quick note: give the figure in %, leave out the unit.

Would you please look over these solved cases?
>  <Compound>
O=C(O)c1cc(O)ccc1/N=N/c1ccccc1 [Ligand 106863]

>  <Quantity kind>
Inhibition of JS-81 Binding (%)

>  <Units text>
%

>  <Meas value>
0

$$$$
>  <Compound>
CC(C)=CCC1=C(OCC(=O)O)C(=O)c2ccccc2C1=O [Ligand 98026]

>  <Quantity kind>
Inhibition of JS-81 Binding (%)

>  <Units text>
%

>  <Meas value>
0

$$$$
>  <Compound>
Cc1ccc(-c2cc(C(=O)O)c3ccccc3n2)c(C)c1 [Ligand 25678]

>  <Quantity kind>
Inhibition of JS-81 Binding (%)

>  <Units text>
%

>  <Meas value>
4

$$$$
>  <Compound>
N=C(N)N/N=C/c1c(Cl)cccc1Cl [Ligand 68982]

>  <Quantity kind>
Inhibition of JS-81 Binding (%)

>  <Units text>
%

>  <Meas value>
13

$$$$

Let's switch to this compound now.
-- ask Give native CD81 on Raji cells (Homo sapiens, UniProt P60033) Inhibition of JS-81 Binding (%) for O=C(O)c1ccc(N2CCCCC2)cc1O [Ligand 23895]
-- reply 0

----------
Known Binding (RU) of a selection of compounds
# Target: recombinant CD81-LEL (Homo sapiens)
# Construct: the large extracellular loop of CD81 (CD81-LEL); GST; His; Shoshana Levy Lab, Stanford (gift)
# Protocol: SPR (Biacore T100) binding of additional ligands to immobilized CD81-LEL (Example 6)
# Study conditions: Table E, ligand 200 uM in PBS-1% DMSO
Give just the number in RU; leave the unit off.

-- ask State the recorded Binding (RU) for this entry: O=C(O)/C(=C/c1ccccc1)c1ccccc1 [Ligand 40614]
-- reply 50.8

-- ask Given O=C(Nc1ccc(Br)c2ccccc12)c1ccc2ccccc2c1O [Ligand 601359] , state its recorded Binding (RU).
-- reply 4.1

-- ask For the compound CCC(C)(C)c1ccc(Oc2cccc(C(=O)O)c2)cc1 [Ligand 7962] , what Binding (RU) is on record?
-- reply 14.7

-- ask I would be grateful if you could share the reported Binding (RU) for O=C(O)Cn1ccc2ccccc21 [Ligand 75866] .
-- reply 18.9

----------
# Target: recombinant CD81-LEL (GST tag) (Homo sapiens)
# Construct: the large extracellular loop of CD81 (CD81-LEL); gift of Dr. Shoshana Levy, Stanford University
# Protocol: Surface plasmon resonance (Biacore T200) binding of ligands to immobilized recombinant CD81-LEL
# Study conditions: Table A; ligand 600 μM in PBS-0.05% Tween-80; CD81-LEL-GST on CM5 chip
Quantity kind: SPR Response Units (RU)
Number only, in RU; omit the unit.

>  <Molecule>
O=C(O)CSc1nc2ccccc2s1

>  <Target>
recombinant CD81-LEL (GST tag) (Homo sapiens)

>  <SPR Response Units / RU>
15.2

$$$$
>  <Molecule>
O=C(Cn1ccc(=O)[nH]c1=O)Nc1ccc(C(=O)O)c(O)c1

>  <Target>
recombinant CD81-LEL (GST tag) (Homo sapiens)

>  <SPR Response Units / RU>
16.9

$$$$

Now for the molecule whose SPR Response Units we want.
-- ask Query: SPR Response Units; subject: "CC(C)=CCC1=C(OCC(=O)O)C(=O)c2ccccc2C1=O"
-- reply 50
